B1: Homeobox protein cut-like 1, residues 548 to 629; numbered along this chain, P39880 (parent)
chain: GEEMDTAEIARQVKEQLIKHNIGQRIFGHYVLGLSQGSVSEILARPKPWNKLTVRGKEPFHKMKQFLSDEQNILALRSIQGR

Variants of: B1
ASSAY_PROTOCOL: abundance fitness (aPCA) (normalised: wild type 0, dead -1); higher = more abundant; growth selection in yeast, the domain comes from the species named
CONDITION: Homo sapiens
METRIC: abundance fitness
One number for each entry.

Q65V | -0.117
E58W | -0.227
K57A | -0.2

Required: abundance fitness, one value per variant below.
1. E8Q
2. E41T
3. D69H

a:
1: -0.104; 2: -0.243; 3: -0.182
